System: MCF7 breast
Test: NCI-60 one-dose screen, 48 h
Conditions: 10 µM unless noted
This is part of a sample that, as a whole, favours compounds with a hit. Of some 83,000 tested, about 20% had one in any assay. Calls of active or inactive are those of the source. How the source made its calls: active means growth percent below 10; inactive means the rest.
Your answer must be one of the following: active, inactive

q: Which outcome was entered for the molecule O=c1[nH]c(=O)n(Cc2ccc(F)cc2)cc1F in this test?
a: inactive

q: Which outcome was entered for the molecule C=CC(=O)N1CC2(CC(n3nc(-c4ccc(Oc5ccccc5)cc4)c4c(N)ncnc43)C2)C1 in this test?
a: inactive

q: Which outcome was entered for the molecule C=C1C(=O)OC2/C=C(/C)C3(O)OC(C)(CC(OC(=O)C(C)C)C12)CC3OC(C)=O (stereo unspecified) in this test?
a: active

q: Which outcome was entered for the molecule O=C(c1ccc2ncc(-c3nc(NC4CC4)ncc3F)n2c1)N1CCOCC1 in this test?
a: active

q: Which outcome was entered for the molecule CCOC(=O)C1=C(C)N2C(=NC3=C(CCCC/C3=C\c3ccccc3)C2c2ccccc2)S1 (stereo unspecified) in this test?
a: inactive

q: Which outcome was entered for the molecule CCCCC1COc2cccc3c(SCC(=O)N(C)c4cccc5ccccc45)cc[n+]1c23 (stereo unspecified) in this test?
a: inactive

q: Which outcome was entered for the molecule COc1c(O)c2c3c(c1OC)-c1ccccc1CC3N(S(=O)(=O)c1ccc(C)cc1)CC2 (stereo unspecified) in this test?
a: inactive

q: Which outcome was entered for the molecule ONc1nc(NO)c2[nH]cnc2n1 in this test?
a: inactive

q: Which outcome was entered for the molecule Oc1ccccc1/C=N/Nc1nc2ccccc2s1 in this test?
a: inactive

q: Which outcome was entered for the molecule CC(=O)Nc1ccccc1-c1n[nH]c(=O)[nH]c1=O in this test?
a: inactive

q: Which outcome was entered for the molecule CC(C)NCC(O)COc1ccc(CCOCC2CC2)cc1 (stereo unspecified) in this test?
a: inactive

q: Which outcome was entered for the molecule OB(O)c1ccccc1 in this test?
a: inactive

q: Which outcome was entered for the molecule O=C(CCCCCCC(=O)Nc1ccc2c(c1)/C(=C/c1ccc[nH]1)C(=O)N2)NO in this test?
a: inactive

q: Which outcome was entered for the molecule COc1c(Cl)ccc2c(-c3nc4cc(Cl)c(F)cc4s3)cc(=O)oc12 in this test?
a: inactive

q: Which outcome was entered for the molecule COc1ccc(OC)c(C2C(C#N)=C(N)Oc3cc(O)ccc32)c1 (stereo unspecified) in this test?
a: inactive

q: Which outcome was entered for the molecule COC(=O)[C@@H]1CCCN1C(=O)[C@@H]1CCCN1C(=O)[C@@H](Cc1c[nH]c2ccccc12)NC(=S)Nc1cc(C(F)(F)F)cc(C(F)(F)F)c1 in this test?
a: inactive

q: Which outcome was entered for the molecule COc1ccc(NC(=O)c2ccc3c(c2)nc(-c2ccc(Cl)cc2)n3-c2cc(C(C)(C)C)[nH]n2)cc1 in this test?
a: inactive

q: Which outcome was entered for the molecule O=C(N/N=C/c1ccc(F)cc1)c1[nH]c2ccc(I)cc2c1-c1ccccc1 in this test?
a: inactive

q: Which outcome was entered for the molecule N#CC1=C(N)Oc2cc(N)ccc2C1c1ccc(F)cc1 (stereo unspecified) in this test?
a: inactive

q: Which outcome was entered for the molecule COc1ccc(C2=NOC(CC(=O)N(CCO)CCO)C2)cc1OC1CCCC1 (stereo unspecified) in this test?
a: inactive

q: Which outcome was entered for the molecule COc1ccc(OC)c(/C=C2\Oc3cc(O)ccc3C2=O)c1 in this test?
a: inactive

====

Test system: IGROV1 ovarian
Test: NCI-60 one-dose screen, 48 h (100 = growth as untreated, 0 = no growth, -100 = all killed)
Conditions: 10 µM unless noted
The panel holds about 83,000 compounds, 20% with a hit somewhere; the sample as a whole holds those more often.
Threshold 80%. growth below it: Y. growth at it or above: N.

q: Here's an entry: FC(F)(F)c1cc(CNc2nc(Cl)ncc2Br)cc(C(F)(F)F)c1 . Is its growth below 80%?
a: Y

q: Here's an entry: CCCCCCCCCCCC(=O)[O][Sn]([CH2]CCC)([CH2]CCC)[CH2]CCC . Is its growth below 80%?
a: Y

q: Here's an entry: Cc1nn(CC(=O)O)c2c1C(=O)CC(C)(C)C2 . Is its growth below 80%?
a: N

q: Here's an entry: CCOC(=O)c1c(Cl)c2c(n1Cc1ccc(OC)cc1)-c1oncc1CCC2 . Is its growth below 80%?
a: N

q: Here's an entry: Cc1ccc(-c2c3c(N)c4c(nc3nc3c2c(C)nn3-c2ccccc2)CCCC4)cc1 . Is its growth below 80%?
a: N

====

Hi there, I'd appreciate the recorded growth for every entry that follows.
Tested on: SR leukemia
Assay: NCI-60 one-dose screen, 48 h (100 = growth as untreated, 0 = no growth, -100 = all killed)
Conditions: 10 µM unless noted
The panel holds about 83,000 compounds, 20% with a hit somewhere; the sample as a whole holds those more often.
Express your answer in %, writing the number without its unit.

# growth of CNc1ccc(Br)cc1-c1n[nH]c(=O)[nH]c1=O = 103

# growth of O=C(COc1cccc(/C=C2\COc3ccccc3C2=O)c1)c1ccccc1 = -62.4

# growth of COc1ccc(-c2c(-c3cc4c(c(OC)c3OC)OCO4)noc2N)cc1 = 10.9

# growth of CC1=C(C/C=C(\C)CCC[C@H](C)CCC[C@H](C)CCCC(C)C)C(=O)c2ccccc2C1=O = 94.9

# growth of CC1SC(c2cccc(Oc3ccccc3)c2)N(CCc2cccs2)C1=O (stereo not given) = -2.19

# growth of O=C1/C(=C/c2ccc([N+](=O)[O-])cc2)Oc2ccc(O)cc21 = 43

# growth of CCOC(=O)n1cc(C2=C(c3cn(C)c4ccccc34)COC2=O)c2ccccc21 = 14

# growth of O=C(Nc1ccc(Cl)c(Cl)c1)NC(CO)(CO)CO = 101

# growth of COc1ccc(-c2[nH]ncc2Nc2cc(OC)c(OC)c(OC)c2)cc1 = 116

# growth of O=C(N/N=C(\CS(=O)(=O)c1ccccc1)c1cc2ccccc2oc1=O)c1ccccc1 = 101

====

Test system: NCI-H460 lung
Experiment: NCI-60 one-dose screen, 48 h (100 = growth as untreated, 0 = no growth, -100 = all killed)
Details: 10 µM unless noted
Compounds without any hit were thinned out: in the full panel of roughly 83,000, 20% have a hit.
Threshold 10%. growth below it: Condition met. growth at it or above: Condition not met.

q: Here's an entry: O=C1CCC(N2Cc3c(C#CCCCNC(=O)c4cc5c(o4)C(=O)c4ccccc4C5=O)cccc3C2=O)C(=O)N1 (stereo not given) . Is its growth below 10%?
a: Condition met

q: Here's an entry: CC1SC(c2cccc(Oc3ccccc3)c2)N(CCc2cccs2)C1=O (stereo not given) . Is its growth below 10%?
a: Condition met

q: Here's an entry: Cc1c(C)n(CC(O)CNC2CCCCC2C)c2ccccc12 (stereo not given) . Is its growth below 10%?
a: Condition not met

q: Here's an entry: Cc1nc2cc(Nc3nc(Nc4ccc(F)cc4)nc(-c4cccs4)n3)ccc2n1Cc1ccccc1 . Is its growth below 10%?
a: Condition not met

q: Here's an entry: O=C(CCc1nnc2sc(-c3ccccc3)nn12)c1nc2ccccc2[nH]1 . Is its growth below 10%?
a: Condition not met

====

Test system: ACHN renal
Assay: NCI-60 one-dose screen, 48 h
Details: 10 µM unless noted
The panel holds about 83,000 compounds, 20% with a hit somewhere; the sample as a whole holds those more often. Activity calls are given as the source filed them. Rule for the calls: active = growth percent below 10; inactive = the rest.
Your answer must be one of the following: active, inactive

q: Which outcome was entered for the compound COC(=O)[C@H]1CCCN1C(=O)[C@H]1CCCN1C(=O)[C@@H](Cc1c[nH]c2ccccc12)NC(=S)Nc1cc(C(F)(F)F)cc(C(F)(F)F)c1 in this test?
a: inactive

q: Which outcome was entered for the compound CCOc1ccc(-c2cnnn2-c2nonc2-n2cccc2)cc1 in this test?
a: inactive

q: Which outcome was entered for the compound CC(C)(C)[Si](C)(C)OC1[C@@H](CNC(=O)NC(=O)CCl)O[C@@H](n2cnc3c(N)ncnc32)[C@H]1O[Si](C)(C)C(C)(C)C (stereo partly specified) in this test?
a: active

q: Which outcome was entered for the compound CCSc1nnc2c3cc(Br)ccc3n(C)c2n1 in this test?
a: inactive

q: Which outcome was entered for the compound CC(=O)Nc1ccc(S(=O)(=O)N/N=C\c2ccc(Cl)c(Cl)c2)cc1 in this test?
a: inactive

q: Which outcome was entered for the compound COC(=O)c1ccc(C(=O)Nc2ccccc2N)cc1 in this test?
a: inactive

q: Which outcome was entered for the compound CCCN(CCC)c1ccc(/C=C/c2ccc3cc(OCC)ccc3n2)cc1 in this test?
a: inactive

q: Which outcome was entered for the compound Nc1nc(-c2ccnc(Cl)c2)nn1-c1nc2ccccc2s1 in this test?
a: inactive

q: Which outcome was entered for the compound Clc1ccc(Nc2ccnc(N3CCN(c4ccnc5cc(Cl)ccc45)CC3)n2)cc1 in this test?
a: inactive

q: Which outcome was entered for the compound CCCCC(=O)N/N=C/c1cc(I)cc(I)c1O in this test?
a: inactive

q: Which outcome was entered for the compound O=C(Nc1ccc(F)cc1)c1ccc(C(=O)Nc2ccc(F)cc2)cc1 in this test?
a: inactive

q: Which outcome was entered for the compound COc1cc2oc(-c3ccc(O)cc3)cc(=O)c2c(O)c1I in this test?
a: inactive

q: Which outcome was entered for the compound CCOC(=O)c1c(Cl)c2c(n1Cc1cc(OC)cc(OC)c1)-c1oncc1CCC2 in this test?
a: inactive

q: Which outcome was entered for the compound CCN1CCN(C(=S)SCC(=O)Nc2nc3ccc(OC)cc3s2)CC1 in this test?
a: inactive

q: Which outcome was entered for the compound Nc1nc(N)c(N=Nc2c(Br)cc(S(N)(=O)=O)cc2Br)c(N)n1 in this test?
a: inactive

q: Which outcome was entered for the compound Nc1c(Br)cc(Br)cc1-c1n[nH]c(=O)[nH]c1=O in this test?
a: inactive

q: Which outcome was entered for the compound CCOc1ccc(/C=N\N2CCCCCC2)cc1OCC in this test?
a: inactive

q: Which outcome was entered for the compound NC(=O)c1cc(Cl)ccc1NC(=O)COc1ccccc1 in this test?
a: inactive

q: Which outcome was entered for the compound CCOC(=O)c1[nH]c2cc(Cl)ccc2c1[C@@H](C(=O)NC(C)(C)C)N(CC)C(=O)CCCCC#Cc1cccc2c1CN(C1CCC(=O)NC1=O)C2=O (stereo partly specified) in this test?
a: inactive

q: Which outcome was entered for the compound CC1SC(c2cccc(Oc3ccccc3)c2)N(CCc2cccs2)C1=O (stereo unspecified) in this test?
a: active

q: Which outcome was entered for the compound COc1cc2cc(Oc3ccc(NC(=O)Nc4cccc(C(F)(F)F)c4)cc3)c(C)nc2cc1OCCN1CCCCC1 in this test?
a: active
